testTarget: human α1B‐adrenoceptor (Homo sapiens, UniProt P35368)
Construct: expressed in transfected cells; host or cells: CHO-K1
Sequence (P35368 1-520): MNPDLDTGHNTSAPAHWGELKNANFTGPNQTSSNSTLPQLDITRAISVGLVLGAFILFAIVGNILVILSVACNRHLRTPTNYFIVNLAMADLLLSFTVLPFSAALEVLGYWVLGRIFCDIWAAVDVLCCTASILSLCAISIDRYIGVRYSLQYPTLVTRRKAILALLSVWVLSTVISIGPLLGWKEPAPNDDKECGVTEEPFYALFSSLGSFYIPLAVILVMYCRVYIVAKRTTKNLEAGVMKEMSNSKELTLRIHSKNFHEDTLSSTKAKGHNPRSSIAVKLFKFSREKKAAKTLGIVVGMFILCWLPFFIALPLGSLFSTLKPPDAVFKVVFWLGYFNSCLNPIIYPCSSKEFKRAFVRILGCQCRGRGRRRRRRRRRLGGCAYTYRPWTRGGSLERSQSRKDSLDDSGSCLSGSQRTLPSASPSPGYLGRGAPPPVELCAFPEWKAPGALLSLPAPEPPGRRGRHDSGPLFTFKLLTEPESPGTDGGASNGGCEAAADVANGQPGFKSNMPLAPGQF
testSummary: ^3H‐cAMP accumulation in the presence of 10 μM forskolin, CHO‐α1B cells
Format: cell-based
runConditions: CHO‐α1B cells; fold increase of the forskolin response
Kindly supply the reported cAMP accumulation (in presence of forskolin) Fold increase values for the records listed here.
Answer format: value, then unit.

Lab note: CCNCC(O)c1cccc(O)c1 (stereo not drawn) gave cAMP accumulation (in presence of forskolin) Fold increase of 2.47 ± 0.09 fold

Lab note: CCc1cccc(CC)c1NC1=NCCN1 gave cAMP accumulation (in presence of forskolin) Fold increase of 2.34 ± 0.09 fold

Lab note: c1ccc(C2CC2)c(OCC2=NCCN2)c1 gave cAMP accumulation (in presence of forskolin) Fold increase of 2.09 ± 0.13 fold

Lab note: Cc1cccc(C(C)c2cnc[nH]2)c1C (stereo not drawn) gave cAMP accumulation (in presence of forskolin) Fold increase of 1.52 ± 0.04 fold

Lab note: CC(CCc1ccc(O)cc1)NCCc1ccc(O)c(O)c1 (stereo not drawn) gave cAMP accumulation (in presence of forskolin) Fold increase of 1.24 ± 0.04 fold

Lab note: Brc1c(NC2=NCCN2)ccc2nccnc12 [Brimonidine] gave cAMP accumulation (in presence of forskolin) Fold increase of 1.58 ± 0.07 fold

Lab note: C=CCc1ccccc1OC(C)C1=NCCN1 (stereo not drawn) gave cAMP accumulation (in presence of forskolin) Fold increase of 1.87 ± 0.07 fold

Lab note: N=C(N)NC(=O)Cc1c(Cl)cccc1Cl gave cAMP accumulation (in presence of forskolin) Fold increase of 2.67 ± 0.18 fold

Lab note: Clc1ccc2nsnc2c1NC1=NCCN1 gave cAMP accumulation (in presence of forskolin) Fold increase of 2.01 ± 0.11 fold

Lab note: COc1ccc(OC)c(C(O)C(C)N)c1 (stereo not drawn) gave cAMP accumulation (in presence of forskolin) Fold increase of 2.42 ± 0.05 fold

Lab note: C[C@H](N)[C@H](O)c1cccc(O)c1 gave cAMP accumulation (in presence of forskolin) Fold increase of 2.58 ± 0.07 fold

Lab note: CC(N)C(O)c1ccc(O)c(O)c1 (stereo not drawn) [α‐Methylnorepinephrine] gave cAMP accumulation (in presence of forskolin) Fold increase of 3.09 ± 0.21 fold

Lab note: Cc1cccc([C@H](C)c2cnc[nH]2)c1C gave cAMP accumulation (in presence of forskolin) Fold increase of 1.60 ± 0.07 fold

Lab note: c1ccc2c(CC3=NCCN3)cccc2c1 gave cAMP accumulation (in presence of forskolin) Fold increase of 1.65 ± 0.07 fold

Lab note: Brc1c(NC2=NCCN2)ccc2nccnc12 [UK14304] gave cAMP accumulation (in presence of forskolin) Fold increase of 1.50 ± 0.05 fold
